System: Solanum nigrum
Test: Example B2 herbicidal action, post-emergence, pots in glasshouse, damage score 0-10
Assay type: in vivo
Conditions: application post-emergence, rate 1000 g/ha, evaluated after 13 days
Procedure: Seeds of a variety of test species were sown in standard soil in pots. […] After 13 days, the test was evaluated (10=total damage to plant; 0=no damage to plant).
METRIC: SOLNI damage score (10=total damage to plant; 0=no damage to plant)

smiles_text=CN1c2nccnc2C(OC(=O)C(C)(C)C)=C(c2c(Cl)ccc(Cl)c2Cl)S1(=O)=O result_number=6
smiles_text=O=S1(=O)C(c2cc(F)c(Cl)cc2Cl)=C(O)c2nccnc2N1CC(F)F result_number=10
smiles_text=CC(C)(C)C(=O)OC1=C(c2ccc(I)cc2Cl)S(=O)(=O)N(CC(F)F)c2nccnc21 result_number=8
smiles_text=CCSC(=O)OC1=C(c2c(F)ccc(Br)c2Cl)S(=O)(=O)N(CC(F)F)c2nccnc21 result_number=7
smiles_text=CCSC(=O)OC1=C(c2cc(C(F)(F)F)ccc2Br)S(=O)(=O)N(CC(F)F)c2nccnc21 result_number=10
smiles_text=CCN1c2nccnc2C(O)=C(c2cccc(Cl)c2Cl)S1(=O)=O result_number=8
smiles_text=CC(C)C(=O)OC1=C(c2c(Cl)ccc(Cl)c2Cl)S(=O)(=O)N(C)c2nccnc21 result_number=9
smiles_text=CCN1c2nccnc2C(O)=C(c2c(F)ccc(Br)c2Cl)S1(=O)=O result_number=9
